# System: LNCaP95 cells
# assayProcedure: Antiproliferative assay (resazurin, 72 h) in LNCaP95 cells
# Assay type: cell-based
# conditionLabel: LNCaP-95; antiproliferation, LNCaP95, 72 h, mean of three independent experiments; read-out: IC50 (μM) LNCaP95
Define the label as 1.0 when IC50 is strictly less than 0.4 µM and as 0.0 in all remaining cases.

>>> labelvalue("O=C(Nc1ccc([N+](=O)[O-])c(C(F)(F)F)c1)c1cc(Cl)ccc1O")
0.0
>>> labelvalue("O=C(Nc1ccc(C(F)(F)F)nc1)c1cc(F)ccc1O")
0.0
>>> labelvalue("Cc1cc(NC(=O)c2cc(Cl)ccc2O)ccc1[N+](=O)[O-]")
0.0

Is IC50 strictly under 0.4 µM for the entry Cc1cc([N+](=O)[O-])ccc1NC(=O)c1ccc(Cl)cc1O ?
0.0

Is IC50 strictly under 0.4 µM for the entry O=C(Nc1ccc(C(F)(F)F)c(C(F)(F)F)c1)c1cccc(Cl)c1 ?
1.0

Is IC50 strictly under 0.4 µM for the entry COc1cc([N+](=O)[O-])ccc1NC(=O)c1cc(Cl)ccc1O ?
0.0

Is IC50 strictly under 0.4 µM for the entry COc1cc([N+](=O)[O-])ccc1NC(=O)c1ccc(Cl)cc1O ?
0.0

Is IC50 strictly under 0.4 µM for the entry O=C(Nc1ccc([N+](=O)[O-])c(C(F)(F)F)c1)c1cccc(Br)c1 ?
0.0

Is IC50 strictly under 0.4 µM for the entry O=C(Nc1ccc([N+](=O)[O-])c(C(F)(F)F)c1)c1ccc(Cl)cc1O ?
1.0

Is IC50 strictly under 0.4 µM for the entry O=C(Nc1ccc([N+](=O)[O-])c(F)c1)c1ccc(Cl)cc1O ?
0.0

Is IC50 strictly under 0.4 µM for the entry O=C(Nc1ccc([N+](=O)[O-])cc1Cl)c1cc(Cl)ccc1OS(=O)(=O)C(F)(F)F ?
1.0

Is IC50 strictly under 0.4 µM for the entry O=C(Nc1ccc(C(F)(F)F)cc1F)c1cc(F)ccc1O ?
1.0

Is IC50 strictly under 0.4 µM for the entry COc1cc(NC(=O)c2cc(Cl)ccc2O)ccc1[N+](=O)[O-] ?
0.0

Is IC50 strictly under 0.4 µM for the entry O=C(Nc1ccc(C(F)(F)F)cc1Cl)c1cc(F)ccc1O ?
1.0

Is IC50 strictly under 0.4 µM for the entry O=C(Nc1ccc(C(F)(F)F)c(C(F)(F)F)c1)c1cc(F)c(F)cc1O ?
1.0

Is IC50 strictly under 0.4 µM for the entry N#Cc1cc(C(F)(F)F)ccc1NC(=O)c1cc(F)ccc1O ?
0.0

Is IC50 strictly under 0.4 µM for the entry O=C(Nc1ccc([N+](=O)[O-])c(F)c1)c1cc(Cl)ccc1O ?
0.0

Is IC50 strictly under 0.4 µM for the entry O=C(Nc1ccc([N+](=O)[O-])c(Cl)c1)c1ccc(Cl)cc1O ?
0.0

====

Quick reference: DC50 of the listed items.
# measurementTarget: AR-V7 (Homo sapiens, UniProt P10275)
# Sequence (P10275 1-644 isoform P10275-3): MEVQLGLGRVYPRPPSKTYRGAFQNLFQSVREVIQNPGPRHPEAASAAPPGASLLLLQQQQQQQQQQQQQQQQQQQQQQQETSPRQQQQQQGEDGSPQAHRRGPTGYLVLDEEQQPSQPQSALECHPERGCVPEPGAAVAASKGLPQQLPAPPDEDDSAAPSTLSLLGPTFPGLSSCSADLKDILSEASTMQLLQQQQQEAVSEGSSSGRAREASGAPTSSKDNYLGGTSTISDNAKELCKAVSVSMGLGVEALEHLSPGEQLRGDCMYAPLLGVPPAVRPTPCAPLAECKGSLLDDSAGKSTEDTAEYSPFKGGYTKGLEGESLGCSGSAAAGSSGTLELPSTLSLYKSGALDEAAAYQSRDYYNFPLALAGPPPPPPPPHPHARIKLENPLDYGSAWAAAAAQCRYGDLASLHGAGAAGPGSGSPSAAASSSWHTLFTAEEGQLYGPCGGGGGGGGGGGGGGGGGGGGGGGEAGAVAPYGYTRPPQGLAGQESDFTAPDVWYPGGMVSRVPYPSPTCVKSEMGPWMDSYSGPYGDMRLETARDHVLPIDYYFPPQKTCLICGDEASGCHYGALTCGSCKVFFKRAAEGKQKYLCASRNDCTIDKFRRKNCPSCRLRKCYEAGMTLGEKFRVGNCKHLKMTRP
# assayProcedure: AR-V7 downregulation in LNCaP95 cells (automated Western, Wes)
# conditionLabel: read-out: AR-V7 Downregulation IC50; LNCaP95, 24 h treatment
Form entry: value (µM) — number only.

Before answering, review these 3 worked examples.
>>> measuredvalue("O=C(Nc1ccc(C(F)(F)F)c(C(F)(F)F)c1)c1cc(F)c(F)cc1O")
0.491
>>> measuredvalue("O=C(Nc1ccc(C(F)(F)F)c(C(F)(F)F)c1)c1cc(Cl)ccc1O")
0.28
>>> measuredvalue("N#Cc1ccc(NC(=O)c2cc(Cl)ccc2O)cc1C(F)(F)F")
0.85

// below: DC50 requested for another compound
Record O=C(Nc1ccc(C(F)(F)F)c(C(F)(F)F)c1)c1cc(F)ccc1O : what is its DC50 with AR-V7 (Homo sapiens, UniProt P10275)?
0.467
